# run_description: Antiproliferative activity against human WI38 cells incubated for 24 hrs by MTT assay
# Assay type: cell-based, WI-38
# condition_label: read-out: LD50
Some compounds, each annotated with its measured CC50 at 24 h.
Entry rule: numbers only, all in µM.

Check out these entries, answers already filled in.
sample_smiles | display_unit | CC50 at 24 h
O=C(/C=C/c1cc(Cl)cc(Cl)c1)c1ccc(OCc2cn([C@@H]3O[C@H](CO)[C@@H](O)[C@H](O)[C@H]3O)nn2)cc1 | µM | 64
COc1cc(/C=C/C(=O)c2ccc(OCc3cn([C@@H]4O[C@H](CO)[C@@H](O)[C@H](O)[C@H]4O)nn3)cc2)cc(OC)c1 | µM | 52
COc1cc(/C=C/C(=O)c2cc(OC)c(OC)c(OC)c2)ccc1OCc1cn([C@@H]2O[C@H](CO)[C@@H](O)[C@H](O)[C@H]2O)nn1 | µM | 67

The compound identified as "COc1ccc(/C=C/C(=O)c2ccc(OCc3cn([C@@H]4O[C@H](CO)[C@@H](O)[C@H](O)[C@H]4O)nn3)cc2)cc1" registered its CC50 at 24 h at 72

====

Some molecules, each annotated with its measured selectivity ratio.
# run_description: Selectivity index, ratio of LD50 for human WI38 cells to LD50 for human MCF7 cells
# Assay type: toxicity
# condition_label: WI38 cells and MCF7 cells, read-out: Selectivity Index
# print the numeric value only

Check out these entries, answers already filled in.
molecule | recorded_measurement
COc1cc([C@@H]2c3cc4c(cc3[C@@H](O[C@@H]3O[C@@H]5CO[C@@H](C)O[C@H]5[C@H](O)[C@H]3O)[C@H]3COC(=O)[C@H]23)OCO4)cc(OC)c1O [ETOPOSIDE] | 0.95
COc1ccccc1/C=C/C(=O)c1ccc(OCc2cn([C@@H]3O[C@H](CO)[C@@H](O)[C@H](O)[C@H]3O)nn2)cc1 | 1.06

The molecule identified as "O=C(/C=C/c1ccc(Cl)c(Cl)c1)c1ccc(OCc2cn([C@@H]3O[C@H](CO)[C@@H](O)[C@H](O)[C@H]3O)nn2)cc1" registered its selectivity ratio at 0.85

The molecule identified as "O=C(/C=C/c1cccc([N+](=O)[O-])c1)c1ccc(OCc2cn([C@@H]3O[C@H](CO)[C@@H](O)[C@H](O)[C@H]3O)nn2)cc1" registered its selectivity ratio at 1.17

The molecule identified as "CC(=O)O[C@H]1C(=O)[C@@]2(C)[C@H]([C@H](OC(=O)c3ccccc3)[C@]3(O)C[C@H](OC(=O)[C@H](O)[C@@H](NC(=O)c4ccccc4)c4ccccc4)C(C)=C1C3(C)C)[C@]1(OC(C)=O)CO[C@@H]1C[C@@H]2O" registered its selectivity ratio at 1.2

====

Some molecules, each annotated with its measured selectivity ratio.
# run_description: Selectivity index, ratio of LD50 for human WI38 cells to LD50 for human MDA-MB-468 cells
# Type: toxicity
# condition_label: WI38 cells and MDA-MB-468 cells, read-out: Selectivity Index

molecule | metric | recorded_measurement
O=C(/C=C/c1ccc([N+](=O)[O-])cc1)c1ccc(OCc2cn([C@@H]3O[C@H](CO)[C@@H](O)[C@H](O)[C@H]3O)nn2)cc1 | selectivity ratio | 1.49
COc1cc(/C=C/C(=O)c2ccc(Br)cc2)ccc1OCc1cn([C@@H]2O[C@H](CO)[C@@H](O)[C@H](O)[C@H]2O)nn1 | selectivity ratio | 1.37
COc1cc(/C=C/C(=O)c2ccccc2)ccc1OCc1cn([C@@H]2O[C@H](CO)[C@@H](O)[C@H](O)[C@H]2O)nn1 | selectivity ratio | 1.1
COc1ccc(/C=C/C(=O)c2ccc(OCc3cn([C@@H]4O[C@H](CO)[C@@H](O)[C@H](O)[C@H]4O)nn3)cc2)cc1OCc1ccccc1 | selectivity ratio | 1.64
O=C(/C=C/c1ccccc1Cl)c1ccc(OCc2cn([C@@H]3O[C@H](CO)[C@@H](O)[C@H](O)[C@H]3O)nn2)cc1 | selectivity ratio | 1.06

The molecule identified as "COc1cc(/C=C/C(=O)c2ccc(C#N)cc2)ccc1OCc1cn([C@@H]2O[C@H](CO)[C@@H](O)[C@H](O)[C@H]2O)nn1" registered its selectivity ratio at 1.07

The molecule identified as COc1cc([C@@H]2c3cc4c(cc3[C@@H](O[C@@H]3O[C@@H]5CO[C@@H](C)O[C@H]5[C@H](O)[C@H]3O)[C@H]3COC(=O)[C@H]23)OCO4)cc(OC)c1O [ETOPOSIDE] registered its selectivity ratio at 1.06

The molecule identified as "COc1cc(/C=C/C(=O)c2ccc([N+](=O)[O-])cc2)ccc1OCc1cn([C@@H]2O[C@H](CO)[C@@H](O)[C@H](O)[C@H]2O)nn1" registered its selectivity ratio at 1.02

The molecule identified as "CN(C)c1ccc(/C=C/C(=O)c2ccc(OCc3cn([C@@H]4O[C@H](CO)[C@@H](O)[C@H](O)[C@H]4O)nn3)cc2)cc1" registered its selectivity ratio at 2.11

The molecule identified as "COc1cc(/C=C/C(=O)c2cc(OC)c(OC)c(OC)c2)ccc1OCc1cn([C@@H]2O[C@H](CO)[C@@H](O)[C@H](O)[C@H]2O)nn1" registered its selectivity ratio at 0.92
